Hello, the source for this data is patent US20230310428A1, in case you need it.

# experimental system: various mutants of kinase EGFR (BaF3 cell lines stably transfected with kinase) (Homo sapiens, UniProt P00533)
# Construct: other: BaF3 cells stably transfected with EGFR Δ19Del; MTS, 48 h; other: BaF3 cell line stably transfected with EGFR Δ19Del
# Sequence (P00533 with tags, fused parts or gaps DEL746-750): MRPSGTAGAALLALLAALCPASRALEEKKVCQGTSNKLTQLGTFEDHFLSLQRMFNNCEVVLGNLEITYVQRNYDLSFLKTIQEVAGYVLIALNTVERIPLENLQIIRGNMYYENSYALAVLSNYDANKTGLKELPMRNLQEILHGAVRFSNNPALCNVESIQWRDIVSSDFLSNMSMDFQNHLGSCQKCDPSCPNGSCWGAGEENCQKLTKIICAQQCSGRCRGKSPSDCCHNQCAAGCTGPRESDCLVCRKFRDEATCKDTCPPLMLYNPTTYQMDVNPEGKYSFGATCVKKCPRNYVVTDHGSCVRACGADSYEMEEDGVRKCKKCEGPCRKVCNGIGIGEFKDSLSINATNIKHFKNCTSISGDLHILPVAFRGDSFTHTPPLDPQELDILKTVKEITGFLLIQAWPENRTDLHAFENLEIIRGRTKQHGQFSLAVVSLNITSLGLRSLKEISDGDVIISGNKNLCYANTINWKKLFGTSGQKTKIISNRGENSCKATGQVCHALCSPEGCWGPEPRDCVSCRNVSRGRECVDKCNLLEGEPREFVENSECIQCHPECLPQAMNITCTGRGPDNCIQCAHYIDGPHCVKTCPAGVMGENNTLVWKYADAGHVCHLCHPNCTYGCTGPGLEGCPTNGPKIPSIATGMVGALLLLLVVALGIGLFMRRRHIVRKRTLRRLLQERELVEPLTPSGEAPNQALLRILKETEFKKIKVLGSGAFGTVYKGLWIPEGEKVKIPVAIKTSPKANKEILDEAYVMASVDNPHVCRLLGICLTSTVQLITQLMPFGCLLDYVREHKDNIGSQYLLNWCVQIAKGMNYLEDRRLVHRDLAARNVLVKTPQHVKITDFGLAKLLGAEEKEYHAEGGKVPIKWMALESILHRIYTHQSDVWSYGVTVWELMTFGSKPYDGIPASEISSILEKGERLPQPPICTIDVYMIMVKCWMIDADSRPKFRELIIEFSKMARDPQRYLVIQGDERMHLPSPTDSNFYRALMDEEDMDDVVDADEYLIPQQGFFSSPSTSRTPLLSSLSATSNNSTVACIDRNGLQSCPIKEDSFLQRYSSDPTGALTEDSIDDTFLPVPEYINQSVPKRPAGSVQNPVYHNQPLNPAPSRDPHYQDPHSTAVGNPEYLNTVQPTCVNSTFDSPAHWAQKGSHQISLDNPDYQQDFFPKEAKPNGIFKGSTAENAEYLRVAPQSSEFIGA
# procedure text: Growth inhibitory activity of compounds on BaF3 cell lines stably transfected with kinase (MTS, 48 h)
# Assay type: cell-based
# condition description: BaF3 cell line stably transfected with EGFR Δ19Del, read-out: Δ19Del growth inhibitory activity IC50
readout kind: IC50

item smiles | IC50
CCc1cc(Nc2ncc(Br)c(Nc3ccc4nccnc4c3NS(C)(=O)=O)n2)c(OC)cc1N1CCC(N2CCN(C)CC2)CC1 | ≤ 50 nM

Req: Bench note: what IC50 did `COc1ccc(N2CCC(O)CC2)cc1Nc1ncc(Br)c(Nc2ccc3nccnc3c2N(C)S(=O)(=O)C(F)(F)F)n1` show?
Resp: 500 to 2500 nM

Req: Bench note: what IC50 did `CCn1ccc(Nc2ncc(Br)c(Nc3ccc4nccnc4c3N(C)S(C)(=O)=O)n2)n1` show?
Resp: 50 to 500 nM

* * *

# experimental system: various mutants of kinase EGFR (BaF3 cell lines stably transfected with kinase) (Homo sapiens, UniProt P00533, T790M, form not given)
# Construct: other: BaF3 cells stably transfected with EGFR Δ19Del/T790M; MTS, 48 h; other: BaF3 cell line stably transfected with EGFR Δ19Del/T790M; MTS, 48
# Sequence (P00533 with tags, fused parts or gaps DEL746-750/T790M, form open): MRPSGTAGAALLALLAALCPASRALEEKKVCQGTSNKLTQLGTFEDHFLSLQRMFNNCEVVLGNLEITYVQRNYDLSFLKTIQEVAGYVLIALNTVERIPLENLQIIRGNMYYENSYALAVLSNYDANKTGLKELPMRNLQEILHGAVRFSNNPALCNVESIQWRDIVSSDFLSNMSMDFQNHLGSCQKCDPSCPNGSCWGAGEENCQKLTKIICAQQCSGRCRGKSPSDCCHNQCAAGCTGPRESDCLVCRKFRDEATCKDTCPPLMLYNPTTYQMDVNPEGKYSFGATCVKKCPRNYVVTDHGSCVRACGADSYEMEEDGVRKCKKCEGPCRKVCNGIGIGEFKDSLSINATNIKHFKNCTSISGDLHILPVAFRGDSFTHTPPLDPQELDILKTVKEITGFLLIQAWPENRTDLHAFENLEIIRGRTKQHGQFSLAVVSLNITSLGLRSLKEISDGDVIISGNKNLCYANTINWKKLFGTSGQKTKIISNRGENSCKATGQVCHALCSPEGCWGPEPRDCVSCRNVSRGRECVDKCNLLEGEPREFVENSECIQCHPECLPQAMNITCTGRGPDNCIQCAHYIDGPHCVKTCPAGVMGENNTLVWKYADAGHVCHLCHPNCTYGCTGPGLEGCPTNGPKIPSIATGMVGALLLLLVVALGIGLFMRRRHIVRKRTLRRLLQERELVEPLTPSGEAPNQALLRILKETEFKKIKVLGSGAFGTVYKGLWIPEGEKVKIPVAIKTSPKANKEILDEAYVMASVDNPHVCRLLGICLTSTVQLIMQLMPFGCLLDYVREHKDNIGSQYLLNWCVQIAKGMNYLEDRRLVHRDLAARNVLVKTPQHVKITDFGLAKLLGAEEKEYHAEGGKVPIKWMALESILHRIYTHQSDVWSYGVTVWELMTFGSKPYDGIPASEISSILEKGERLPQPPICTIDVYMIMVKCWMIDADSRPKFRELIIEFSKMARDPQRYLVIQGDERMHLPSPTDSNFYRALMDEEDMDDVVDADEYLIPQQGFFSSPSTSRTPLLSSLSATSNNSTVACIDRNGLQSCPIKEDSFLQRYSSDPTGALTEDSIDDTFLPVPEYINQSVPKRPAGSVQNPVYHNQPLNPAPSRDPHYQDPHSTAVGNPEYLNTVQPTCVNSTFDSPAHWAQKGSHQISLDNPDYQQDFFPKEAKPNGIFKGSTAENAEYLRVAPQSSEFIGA
# procedure text: Growth inhibitory activity of compounds on BaF3 cell lines stably transfected with kinase (MTS, 48 h)
# Assay type: cell-based
# condition description: BaF3 cell line stably transfected with EGFR Δ19Del/T790M, read-out: Δ19Del/ T790M growth inhibitory activity IC50
readout kind: IC50

Worked cases, answers included:
compound | IC50
COc1cc(N2CCC(N3CCN(C)CC3)CC2)ccc1Nc1nc(Nc2ccc3nccnc3c2N(C)S(C)(=O)=O)c2sccc2n1 | 500 to 2500 nM
CCc1cc(Nc2ncc(Br)c(Nc3ccc4nccnc4c3N(C)S(C)(=O)=O)n2)c(OC)cc1NCCN(C)C | 50 to 500 nM
CCc1cc(Nc2ncc(Br)c(Nc3ccc4nccnc4c3N(C)S(C)(=O)=O)n2)c(OC)cc1F | 500 to 2500 nM
COc1cc(N2CCC(N3CCN(C)CC3)CC2)c(C)cc1Nc1ncc(OC)c(Nc2ccc3nccnc3c2N(C)S(C)(=O)=O)n1 | ≤ 50 nM
COc1ccc(N2CCC(O)CC2)cc1Nc1ncc(Cl)c(Nc2ccc3nccnc3c2N(C)S(=O)(=O)C(F)(F)F)n1 | 500 to 2500 nM

Req: Bench note: what IC50 did `C=Cc1cc(Nc2ncc(Cl)c(Nc3ccc4nccnc4c3N(C3CC3)S(C)(=O)=O)n2)c(OC(F)(F)F)cc1N1CCC(N2CCN(C)CC2)CC1` show?
Resp: ≤ 50 nM

Req: Bench note: what IC50 did `COc1ccc(N2CCC(O)CC2)cc1Nc1ncc(C(F)(F)F)c(Nc2ccc3nccnc3c2N(C)S(C)(=O)=O)n1` show?
Resp: ≤ 50 nM

Req: Bench note: what IC50 did CCc1cc(Nc2ncc(C(C)C)c(Nc3ccc4nccnc4c3N(C)S(C)(=O)=O)n2)c(OC)cc1N1CCC(N(C)C)C1 (stereo not drawn) show?
Resp: ≤ 50 nM

Req: Bench note: what IC50 did `COc1ccc(N2CCC(O)CC2)cc1Nc1ncc(Cl)c(Nc2ccc3nccnc3c2N(C)S(=O)(=O)C2CC2)n1` show?
Resp: 50 to 500 nM

Req: Bench note: what IC50 did `CC(C)n1ccc(Nc2ncc(Br)c(Nc3ccc4nccnc4c3N(C)S(C)(=O)=O)n2)n1` show?
Resp: 50 to 500 nM

Req: Bench note: what IC50 did `CCc1cc(Nc2ncc(CC)c(Nc3ccc4nccnc4c3N(C)S(C)(=O)=O)n2)c(OC)cc1C(=O)N1CCC(N2CCN(C)CC2)CC1` show?
Resp: 50 to 500 nM

Req: Bench note: what IC50 did `COc1ccc(N2CCC(O)CC2)cc1Nc1ncc(Br)c(Nc2ccc3nccnc3c2N(C)S(=O)(=O)C(F)(F)F)n1` show?
Resp: 50 to 500 nM

* * *

Entries and their measured pIC50 follow.
# experimental system: various mutants of kinase EGFR (BaF3 cell lines stably transfected with kinase) (Homo sapiens, UniProt P00533, T790M, form not given)
# Construct: other: BaF3 cells stably transfected with EGFR Δ19Del/T790M; MTS, 48 h; other: BaF3 cell line stably transfected with EGFR Δ19Del/T790M; MTS, 48
# procedure text: Growth inhibitory activity of compounds on BaF3 cell lines stably transfected with kinase (MTS, 48 h)
# Assay type: cell-based
# condition description: BaF3 cell line stably transfected with EGFR Δ19Del/T790M, read-out: Δ19Del/ T790M growth inhibitory activity IC50
pIC50: −log10 of the molar value.

compound | readout kind | observed
CCn1cc(Nc2ncc(Br)c(Nc3ccc4nccnc4c3N(C)S(C)(=O)=O)n2)c(C)n1 [Compound I-387] | pIC50 | 5.60 to 6.30
C=Cc1cc(Nc2nc(Nc3ccc4nccnc4c3N(C)S(C)(=O)=O)c3sccc3n2)c(OC(F)(F)F)cc1N1CCC(N2CCN(C)CC2)CC1 [II-1-9] | pIC50 | 6.30 to 7.30
CCc1cc(Nc2ncc(C3CC3)c(Nc3ccc4nccnc4c3N(C)S(C)(=O)=O)n2)c(OC)cc1C(=O)N1CCC(N2CCN(C)CC2)CC1 [Compound I-347] | pIC50 | 5.60 to 6.30
COc1cc(N2CCC(N(C)C)CC2)c(C)cc1Nc1nc(Nc2ccc3nccnc3c2N(C)S(C)(=O)=O)c2[nH]ccc2n1 [II-1-31] | pIC50 | 5.60 to 6.30
CCc1cc(Nc2ncc(Br)c(Nc3ccc4nccnc4c3N(C)S(C)(=O)=O)n2)c(OC)cc1N1CCC(N2CCN(C)CC2)CC1 [Compound I-396] | pIC50 | 6.30 to 7.30

Req: Bench note: what pIC50 did CCc1cc(Nc2ncc(Br)c(Nc3ccc4nccnc4c3N(C3CC3)S(C)(=O)=O)n2)c(OC)cc1N1CCN(C)CC1 [Compound I-310] show?
Resp: ≥ 7.30

Req: Bench note: what pIC50 did COc1ccc(N2CCC(O)CC2)cc1Nc1ncc(C)c(Nc2ccc3nccnc3c2N(C)S(C)(=O)=O)n1 [Compound I-362] show?
Resp: 6.30 to 7.30

* * *

# experimental system: various mutants of kinase EGFR (BaF3 cell lines stably transfected with kinase) (Homo sapiens, UniProt P00533, T790M/C797S, form not given)
# Construct: other: BaF3 cells stably transfected with EGFR Δ19Del/T790M/C797S; MTS, 48; other: BaF3 cell line stably transfected with EGFR Δ19Del/T790M/C7
# Sequence (P00533 with tags, fused parts or gaps DEL746-750/T790M/C797S, form open): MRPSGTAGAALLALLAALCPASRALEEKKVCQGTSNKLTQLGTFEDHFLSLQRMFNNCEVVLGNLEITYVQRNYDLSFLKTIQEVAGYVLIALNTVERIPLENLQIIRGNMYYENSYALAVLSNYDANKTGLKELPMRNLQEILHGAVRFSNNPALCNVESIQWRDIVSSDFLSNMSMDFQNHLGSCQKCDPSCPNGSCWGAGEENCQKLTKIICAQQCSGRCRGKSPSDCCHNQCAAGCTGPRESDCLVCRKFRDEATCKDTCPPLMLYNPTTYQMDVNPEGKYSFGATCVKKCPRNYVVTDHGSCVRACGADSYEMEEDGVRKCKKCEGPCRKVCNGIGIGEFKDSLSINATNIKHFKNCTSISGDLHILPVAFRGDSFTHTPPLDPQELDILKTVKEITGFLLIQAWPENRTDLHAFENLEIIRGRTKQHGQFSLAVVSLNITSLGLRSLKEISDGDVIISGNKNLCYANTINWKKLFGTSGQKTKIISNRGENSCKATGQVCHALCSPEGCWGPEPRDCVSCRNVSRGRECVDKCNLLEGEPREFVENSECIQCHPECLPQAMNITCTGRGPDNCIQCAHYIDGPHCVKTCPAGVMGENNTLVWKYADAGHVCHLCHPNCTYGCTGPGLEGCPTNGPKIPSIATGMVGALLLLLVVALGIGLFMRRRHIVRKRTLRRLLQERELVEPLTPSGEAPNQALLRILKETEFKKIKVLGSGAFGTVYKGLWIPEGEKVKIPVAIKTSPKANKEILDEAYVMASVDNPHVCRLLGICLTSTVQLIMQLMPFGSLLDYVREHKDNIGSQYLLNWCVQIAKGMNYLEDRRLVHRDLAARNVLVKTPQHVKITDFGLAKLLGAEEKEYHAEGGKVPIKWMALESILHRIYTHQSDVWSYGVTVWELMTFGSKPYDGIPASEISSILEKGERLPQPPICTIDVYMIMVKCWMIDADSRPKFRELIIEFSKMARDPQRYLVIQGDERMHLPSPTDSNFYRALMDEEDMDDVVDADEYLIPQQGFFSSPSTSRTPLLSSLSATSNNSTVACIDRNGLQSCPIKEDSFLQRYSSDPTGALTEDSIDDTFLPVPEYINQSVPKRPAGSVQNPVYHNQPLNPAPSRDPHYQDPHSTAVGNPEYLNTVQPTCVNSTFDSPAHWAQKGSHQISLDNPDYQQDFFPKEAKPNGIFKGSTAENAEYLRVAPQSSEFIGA
# procedure text: Growth inhibitory activity of compounds on BaF3 cell lines stably transfected with kinase (MTS, 48 h)
# Format: cell-based
# condition description: BaF3 cell line stably transfected with EGFR Δ19Del/T790M/C797S, read-out: Δ19Del/T790M/ C797S growth inhibitory activity IC50
pIC50: −log10 of the molar value.
Entries and their measured pIC50 follow.

compound | readout kind | observed
COc1nc(N2CCC(N3CCN(C)CC3)CC2)c(C)cc1Nc1ncc(Br)c(Nc2ccc3nccnc3c2N(C2CC2)S(C)(=O)=O)n1 | pIC50 | 5.60 to 6.30
CCc1cc(Nc2nc(Nc3ccc4nccnc4c3N(C)S(C)(=O)=O)c3occc3n2)c(OC)cc1N1CCC(N2CCN(C)CC2)CC1 | pIC50 | ≥ 7.30

Req: Bench note: what pIC50 did CCc1cc(Nc2ncc(C(C)C)c(Nc3ccc4nccnc4c3N(C)S(C)(=O)=O)n2)c(OC)cc1N1CCC(N(C)C)C1 (stereo not shown) show?
Resp: ≥ 7.30

Req: Bench note: what pIC50 did `CCc1cc(Nc2ncc(C(C)C)c(Nc3ccc4nccnc4c3N(C)S(C)(=O)=O)n2)c(OC)cc1N1CCC(N(C)C)CC1` show?
Resp: ≥ 7.30

Req: Bench note: what pIC50 did `COc1cc(N2CCC(N3CCN(C)CC3)CC2)c(C)cc1Nc1nc(Nc2ccc3nccnc3c2N(C)S(C)(=O)=O)c2sccc2n1` show?
Resp: ≥ 7.30

Req: Bench note: what pIC50 did `COc1cc(N2CCC(N3CCN(C)CC3)CC2)c(C(C)C)cc1Nc1nccc(Nc2ccc3nccnc3c2N(C)S(C)(=O)=O)n1` show?
Resp: 5.60 to 6.30

Req: Bench note: what pIC50 did `CCc1cc(Nc2ncc(C(C)C)c(Nc3ccc4nccnc4c3N(C)S(C)(=O)=O)n2)c(OC)cc1N1CCN(C)CC1` show?
Resp: 6.30 to 7.30

Req: Bench note: what pIC50 did `COc1cc(N2CCN(C)CC2)c(C)cc1Nc1nc(Nc2ccc3nccnc3c2N(C)S(C)(=O)=O)c2[nH]ccc2n1` show?
Resp: 5.60 to 6.30

Req: Bench note: what pIC50 did `CCc1cc(Nc2ncc(Br)c(Nc3ccc4nccnc4c3N(C)S(C)(=O)=O)n2)c(OC)cc1N(C)CCN(C)C` show?
Resp: ≥ 7.30

Req: Bench note: what pIC50 did `CC(C)n1ccc(Nc2ncc(Br)c(Nc3ccc4nccnc4c3N(C)S(C)(=O)=O)n2)n1` show?
Resp: 6.30 to 7.30
